Target Under Test: human RORγt ligand binding domain (RORγt LBD) (Homo sapiens (Human), UniProt P51449)
Sequence (P51449 other isoform, or with tags, fused parts or gaps): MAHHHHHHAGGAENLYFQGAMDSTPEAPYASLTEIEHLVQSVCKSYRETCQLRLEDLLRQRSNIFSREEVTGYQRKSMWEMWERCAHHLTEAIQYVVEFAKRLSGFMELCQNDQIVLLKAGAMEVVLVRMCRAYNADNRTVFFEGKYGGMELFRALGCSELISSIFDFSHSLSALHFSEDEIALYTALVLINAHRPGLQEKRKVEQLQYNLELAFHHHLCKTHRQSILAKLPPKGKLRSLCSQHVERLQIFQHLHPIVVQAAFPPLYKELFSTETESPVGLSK
Assay Name: RORγt ThermoFluor® assay (thermal shift binding)
Test Context: read-out: ThermoFluor® Assay, Kd
Measurement Kind: Kd (nM)
The reply should contain only the number, in nM.

Here are 2 compounds together with their reported answers.
CC[C@H](Nc1cc(C(F)F)c(-c2sc(C(=O)N[C@H]3COC[C@@H]3O)nc2C(=O)N2CCC[C@@H]2C)cn1)C(F)(F)F :: 5.4
CC(C)(O)CNC(=O)c1nc(C(=O)N2CCC(F)CC2)c(-c2cnc(NC3CC(F)(F)C3)c(C(F)(F)F)c2)s1 :: 130

Qu. State its Kd: "C[C@H](NC(=O)c1nc(C(=O)N2CCC[C@@H]2C)c(-c2cnc(NC(C)(C)C)cc2C(F)F)s1)C(C)(C)O"
Ans. 3.5

###

Target Under Test: full-length human RORγt (Homo sapiens (Human))
Assay Name: RORγt (full-length human) reporter assay, Conditions B or C
Type: cell-based
Test Context: read-out: RORγt (FL) Reporter Assay B or C, IC50
Measured log10(IC50) values are reported for all entries that follow.
Short version: log10 scale, IC50, µM.

Qu. Return value of log10(IC50) for input "CC[C@H](Nc1cc(C(F)F)c(-c2sc(C(=O)N[C@H]3CCC[C@@H]3O)nc2C(=O)N2CC(F)(F)C[C@@H]2C)cn1)C(F)(F)F" , no commentary.
Ans. -1.47

Qu. Please give measured log10(IC50) of the following entry: C[C@H](Nc1cc(C(F)F)c(-c2sc(C(=O)N[C@@H]3CC[C@H]3O)nc2C(=O)N2CCC[C@@H]2C)cn1)C(F)(F)F (relative stereo)
Ans. -0.89

Qu. Kindly indicate its recorded log10(IC50). Item: "C[C@H]1CCCN1C(=O)c1nc(C(=O)NCC(C)(C)O)sc1-c1cnc(NC2CCCCC2)c(C#N)c1"
Ans. -0.08

Qu. Annotate the compound "C[C@H]1CCCN1C(=O)c1nc(C(=O)NC(C)(C)C(C)(C)O)sc1-c1cnc(NC(C)(C)C)cc1C(F)(F)F" with its measured log10(IC50).
Ans. -1.40

Qu. Using known records, supply log10(IC50) for "C[C@H](CO)NC(=O)c1nc(C(=O)N2CC(F)(F)C[C@@H]2C)c(-c2cnc(N[C@@H](C)C(F)(F)F)cc2C(F)F)s1"
Ans. -1.12

Qu. Give the reported value of log10(IC50) for this record: "CC1(Nc2cc(C(F)F)c(-c3sc(C(=O)NC4CCS(=O)(=O)CC4)nc3C(=O)N3C4CCC3CC4)cn2)CCC1"
Ans. -1.64

Qu. Tell me its log10(IC50) given "C[C@H]1CC(F)(F)CN1C(=O)c1nc(C(=O)N[C@H]2C[C@H](O)C2)sc1-c1cnc(N[C@@H](C2CC2)C(F)(F)F)cc1C(F)F" as the entry.
Ans. -1.82

Qu. Please report the measured log10(IC50) for "C[C@H](Nc1cc(C(F)F)c(-c2sc(C(=O)NC3CCS(=O)(=O)CC3)nc2C(=O)N2CC(F)(F)C[C@@H]2C)cn1)C(F)(F)F"
Ans. -1.19

Qu. Entry C[C@H]1CCCN1C(=O)c1nc(C(=O)NCC(C)(O)C(F)(F)F)sc1-c1cnc(NC(C)(C)C)cc1C(F)(F)F (stereo partly shown) [Example 357] needs its log10(IC50) filled in; supply it.
Ans. -1.92

Qu. Provide measured log10(IC50) value, entry: "CC[C@H](Nc1cc(C(F)F)c(-c2sc(C(=O)NC3CN(C(C)=O)C3)nc2C(=O)N2CCC[C@@H]2C)cn1)C(F)(F)F"
Ans. -0.52

Qu. // fetch log10(IC50) given entry "C[C@H]1CCCN1C(=O)c1nc(C(=O)NCCC(C)(C)O)sc1-c1cnc(NC(C)(C)C)cc1C(F)(F)F"
Ans. -2.11

Qu. Specify log10(IC50) for "C[C@H]1CCCN1C(=O)c1nc(C(=O)NC2CCOCC2)sc1-c1cnc(NC(C)(C)C)cc1C(F)F" and stop.
Ans. -1.43

Qu. Report log10(IC50) for "CC[C@H](Nc1cc(C(F)F)c(-c2sc(C(=O)NC3CCOCC3)nc2C(=O)N2CC(F)(F)C[C@@H]2C)cn1)C(F)(F)F"
Ans. -1.64

###

Target Under Test: full-length human RORγt (Homo sapiens (Human))
Assay Name: RORγt (full-length human) reporter assay, Conditions B or C
Assay type: cell-based
Test Context: read-out: RORγt (FL) Reporter Assay B or C, IC50
Measurement Kind: pIC50
Scale: pIC50 equals -log10([C]), with [C] in mol/L.

Solved cases below.
C[C@H](Nc1cc(C(F)F)c(-c2sc(C(=O)N[C@H]3CC[C@@H]3O)nc2C(=O)N2C3CCC2CC3)cn1)C(F)(F)F (relative stereo) :: 7.40
C[C@H]1CC(F)(F)CN1C(=O)c1nc(C(=O)NCC(C)(C)O)sc1-c1cnc(NCC2(C(F)(F)F)CCC2)cc1C(F)F :: 8.28

Qu. Provide pIC50, tested on full-length human RORγt (Homo sapiens (Human)), for "C[C@H]1CCCN1C(=O)c1nc(C(=O)N(C)CC(C)(C)O)sc1-c1cnc(NC(C)(C)C)cc1C(F)(F)F" .
Ans. 7.96

###

Overview of reported inhibition at 3 µM across a group of compounds:
Target Under Test: full-length human RORγt (Homo sapiens (Human), UniProt P51449)
Sequence (P51449 other isoform, or with tags, fused parts or gaps): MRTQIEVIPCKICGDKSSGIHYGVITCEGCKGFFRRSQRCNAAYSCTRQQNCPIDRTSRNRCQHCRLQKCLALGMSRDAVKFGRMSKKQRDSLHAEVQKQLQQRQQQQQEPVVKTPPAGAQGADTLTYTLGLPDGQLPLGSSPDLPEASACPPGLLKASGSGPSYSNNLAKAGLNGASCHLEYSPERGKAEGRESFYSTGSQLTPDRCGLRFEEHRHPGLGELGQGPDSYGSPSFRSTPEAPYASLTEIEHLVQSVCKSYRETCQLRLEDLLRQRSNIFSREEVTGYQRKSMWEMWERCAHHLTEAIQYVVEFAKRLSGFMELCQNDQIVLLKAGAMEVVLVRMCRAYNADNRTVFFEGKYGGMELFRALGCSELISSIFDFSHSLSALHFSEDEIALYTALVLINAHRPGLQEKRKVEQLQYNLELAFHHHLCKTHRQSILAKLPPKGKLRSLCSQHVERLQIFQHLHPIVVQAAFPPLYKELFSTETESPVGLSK
Assay Name: RORγt (full-length human) reporter assay, Conditions B or C
Assay type: cell-based
Test Context: at 3 μM compound concentration; read-out: RORγt (FL) Reporter Assay B or C, % inhibition
Excerpt: RORγt (Full-Length Human) Reporter Assay: Cells used in this assay were transiently co-transfected with three different plasmids, one expressing the GAL4-DNA binding domain (DBD)-RORγt fusion protein under control of a CMV promoter (NH2-Gal4-DBD:RORC-COOH in pCMV-BD, Stratagene #211342), and two reporter plasmids—the firefly luciferase reporter under control of a GAL4 promoter (pFR-Luc 2×GAL4) and Renilla luciferase reporter under control of CMV promoter (pRL-CMV, Promega # E2261). […]
Give your result in % as a bare value.

Examples with answers:
C[C@H]1CCCN1C(=O)c1nc(C(=O)NC(C)(C)CO)sc1-c1cnc(NC(C)(C)C)cc1C(F)(F)F :: 109
CC[C@H](Nc1cc(C(F)F)c(-c2sc(C(=O)N[C@H]3CC[C@@H]3O)nc2C(=O)N2CCC[C@@H]2C)cn1)C(F)(F)F (relative stereo) :: 91
C[C@H]1CCCN1C(=O)c1nc(C(=O)NCC(C)(C)O)sc1-c1cnc(NCC2(C(F)(F)F)CCC2)cc1C(F)F :: 96

Qu. Provide one value: measured inhibition at 3 µM of "C[C@H]1CCCN1C(=O)c1nc(C(=O)N[C@H]2CC[C@H](O)C2)sc1-c1cnc(NC(C)(C)C)cc1C(F)(F)F"
Ans. 105

Qu. Report inhibition at 3 µM for "CC[C@H](Nc1cc(C(F)F)c(-c2sc(C(=O)N[C@H]3CC[C@H](O)C3)nc2C(=O)N2CCC[C@@H]2C)cn1)C(F)(F)F"
Ans. 109

Qu. For the compound "CC[C@H](Nc1cc(C(F)F)c(-c2sc(C(=O)NC3CN(C(C)=O)C3)nc2C(=O)N2CCC[C@@H]2C)cn1)C(F)(F)F" , give its reported inhibition at 3 µM.
Ans. 107

Qu. Return inhibition at 3 µM (reported value) for this compound: "CC[C@H](Nc1cc(C(F)F)c(-c2sc(C(=O)N[C@@H](C)C(C)(C)O)nc2C(=O)N2CCC[C@@H]2C)cn1)C(F)(F)F"
Ans. 105

Qu. Supply reported inhibition at 3 µM belonging to this compound: C[C@H](Nc1cc(C(F)F)c(-c2sc(C(=O)NC3CCC3O)nc2C(=O)N2CCC[C@@H]2C)cn1)C(F)(F)F (stereo partly shown)
Ans. 99

Qu. Supply measured inhibition at 3 µM of "CC[C@H](Nc1cc(C(F)F)c(-c2sc(C(=O)N[C@H]3C[C@H](O)C3)nc2C(=O)N2CC(F)(F)C[C@@H]2C)cn1)C(F)(F)F" in your reply.
Ans. 108

Qu. Please report inhibition at 3 µM for the following compound: C[C@H]1CCCN1C(=O)c1nc(C(=O)N[C@@H]2CC[C@H]2O)sc1-c1cnc(NC(C)(C)C)cc1C(F)(F)F (relative stereo)
Ans. 96

Qu. Return inhibition at 3 µM (reported value) for this compound: "C[C@H]1CCCN1C(=O)c1nc(C(=O)NCC(C)(C)O)sc1-c1cnc(NC(C)(C)C)cc1C(F)F"
Ans. 98

Qu. # return recorded inhibition at 3 µM for entry "CC(C)[C@@H](C)NC(=O)c1nc(C(=O)N2CCC[C@@H]2C)c(-c2cnc(NC(C)(C)C)cc2C(F)(F)F)s1"
Ans. 107

Qu. Give me measured inhibition at 3 µM, please, for this compound: "CC1(Nc2cc(C(F)F)c(-c3sc(C(=O)N[C@H]4C[C@H](O)C4)nc3C(=O)N3C4CCC3CC4)cn2)CCC1"
Ans. 93
